This collection of values is drawn from the supplement of paper PMC8149375.

System: UO-31
Experiment: GI50, drug alone; higher = less potent
Conditions: treatment: drug alone; 5 days
Exam item: assign Yes to entries whose GI50, drug alone is below 4 µM and No to entries at or above 4 µM. Note that a value of exactly 4 µM receives No.

> print(dat)
                                    compound  measured.target  label
 1  CCN(CC)CCNC(=O)c1c(C)[nH]c(/C=C2\C(=O)Nc3ccc(F)cc32)c1C.O=C(O)C[C@H](O)C(=O)O [Sunitinib Malate (Sutent)]            UO-31    Yes
 2  CC(=O)NCC(=O)N1[C@H]2CC[C@H]1c1cc(Nc3ncc(C(F)(F)F)c(NC4CCC4)n3)ccc12            UO-31    Yes
 3  COc1cc(Nc2ncc(F)c(Nc3ccc4c(n3)N(COP(=O)(O)O)C(=O)C(C)(C)O4)n2)cc(OC)c1OC            UO-31     No
 4  S=C(NCc1ccc2c(c1)OCO2)N1CCN(c2ncnc3c2oc2ccccc23)CC1 [Amuvatinib (MP-470)]            UO-31    Yes
 5         Oc1cc(O)cc(/C=C/c2ccc(O)c(O)c2)c1            UO-31     No
 6  CN(c1ncccc1CNc1nc(Nc2ccc3c(c2)CC(=O)N3)ncc1C(F)(F)F)S(C)(=O)=O.O=S(=O)(O)c1ccccc1            UO-31     No
 7  COc1cc(Nc2ncc3c(n2)-c2ccc(Cl)cc2C(c2c(F)cccc2OC)=NC3)ccc1C(=O)O            UO-31     No
 8            O=C1c2ccccc2-c2n[nH]c3cccc1c23            UO-31     No
 9  O=C1NC(=O)C(=Cc2ccc(-c3ccc(F)cc3)o2)S1 (stereo in doubt)            UO-31     No
10  O=C(NC1CCNCC1)c1n[nH]cc1NC(=O)c1c(Cl)cccc1Cl            UO-31    Yes

Query: Report whether reported GI50, drug alone is lower than 4 µM (strictly) for Cc1ccc(NC(=O)c2cccc(C(C)(C)C#N)c2)cc1Nc1ccc2ncn(C)c(=O)c2c1
Result: No

---

System: UO-31
Assay: GI50 of drug in presence of dasatinib; higher = less potent
Conditions: treatment: drug + dasatinib (fixed dose, not stated); 5 days
Property measured: GI50 of drug (µM)
One number for each entry, in µM.

# count of solved cases: 3
Molecule	GI50 of drug (µM)
CCS(=O)(=O)c1cccc(-c2cc(C(=O)NC3CCN(C)CC3)c(C)c3[nH]c4ncc(C)cc4c23)c1 [TAK-901] + Cc1nc(Nc2ncc(C(=O)Nc3c(C)cccc3Cl)s2)cc(N2CCN(CCO)CC2)n1	8.85
COc1cc2ncnc(Nc3cccc(Br)c3)c2cc1OC.Cl + Cc1nc(Nc2ncc(C(=O)Nc3c(C)cccc3Cl)s2)cc(N2CCN(CCO)CC2)n1	8.52
COc1cc2nccc(Oc3ccc(NC(=O)NC4CC4)c(Cl)c3)c2cc1C(N)=O [E7080 (Lenvatinib)] + Cc1nc(Nc2ncc(C(=O)Nc3c(C)cccc3Cl)s2)cc(N2CCN(CCO)CC2)n1	7.26

With those in mind, consider the next molecule.
Query: Request body: readout GI50 of drug, system UO-31, query COc1cccc2cc(-c3nc([C@H]4CC[C@H](C(=O)O)CC4)n4ncnc(N)c34)[nH]c12 [OSI-027] + Cc1nc(Nc2ncc(C(=O)Nc3c(C)cccc3Cl)s2)cc(N2CCN(CCO)CC2)n1 . Return the value.
Result: 2.24
